Reference source for all entries: ChEMBL document CHEMBL1201862

Tested on: OVCAR-3
Method summary: NCI tumour cell line growth inhibition, 48 h
Calls of active or inactive are those of the source. Cut-off read from the data, not from the text of the source: active = GI50 up to about 1.1 µM and inactive = higher.
Value type: GI50

# Compound, GI50
measured = [
    ("O=C(Cn1c2ccc(Br)cc2c2nc3ccccc3nc21)N1CCOCC1", "> 100 µM (inactive)"),
]

Could you now consider this next compound?
Summary for this compound, CC(C)(C)OC(=O)NCCCCC(NC(=O)c1ccccc1)C(N)=O (stereo not given) : GI50 is > 100 µM (inactive)

====

Test system: HOP-18
Method summary: NCI tumour cell line growth inhibition, 48 h
Active and inactive are the calls of the source. Rule as the data show it: active = GI50 up to about 1.1 µM and inactive = higher.
Value type: GI50

# Compound, Measured on, GI50
measured = [
    ("CCCCCCCCCCCCOC(=S)NC", "HOP-18", "19 µM (inactive)"),
    ("COc1nc2c(nc(N)n2C2OC(CO)C(O)C(O)C2O)c(=O)[nH]1 (stereo unspecified)", "HOP-18", "> 100 µM (inactive)"),
    ("O=[N+]([O-])c1cc2ncc(-c3ccccc3)c(O)c2cc1/C(Cl)=C/c1ccccc1", "HOP-18", "2.11 µM (inactive)"),
    ("O=C1CCC2CCc3cccc4oc1c2c34 (stereo unspecified)", "HOP-18", "> 100 µM (inactive)"),
    ("CCN(CC)CCC(=O)/C=C/c1ccc(C)cc1", "HOP-18", "17.6 µM (inactive)"),
]

Could you now consider this next compound?
Case "CC12C/C(=C\c3ccccc3)C(=O)C3C1CCCC32" , HOP-18, GI50 recorded as > 100 µM (inactive)

====

System: SK-MEL-28
Method summary: NCI tumour cell line growth inhibition, 48 h
Activity calls are given as the source filed them. Rule as the data show it: active = GI50 up to about 1.1 µM and inactive = higher.
Assign a class; possible classes are active, inactive

# Compound, Category label
data = [
    ("Cc1cc(O)c2c(c1O)C(=O)c1cccc(O)c1C2=O [ISLANDICIN]", "inactive"),
    ("CCN1C(=O)/C(=C\\c2coc3ccccc3c2=O)SC1=S", "inactive"),
    ("Cc1ccc(S(=O)(=O)OCC23CCC(C4CC42)C2CC23)cc1 (stereo not given)", "inactive"),
]

Prompt: Outcome logged for "CCCCCCCCCC(=O)CC(=O)c1c(O)cc(O)cc1O" in this assay:
Response: inactive

Prompt: Outcome logged for "Nc1ccccc1C(=O)NC(=O)Nc1ccc(Oc2ncc(Br)cn2)c(Cl)c1" in this assay:
Response: active

====

Test system: SK-MEL-5
Method summary: NCI tumour cell line growth inhibition, 48 h
The source made the active and inactive calls. No stated cut-off is given here; in the data, active = GI50 up to about 1.1 µM and inactive = higher.
Value type: GI50

Here is how some compounds turned out for GI50.
# Compound, Result
records = [
    ("CN(C)c1ccc(C2ON=C(c3ccccc3)N2C23CC4CC(CC(C4)C2)C3)cc1 (stereo unspecified)", "> 10 µM (inactive)"),
    ("COc1cc2c3c([nH]c2c(OC)c1OC)CCN(Cc1ccccc1)C3", "18.9 µM (inactive)"),
]

Summary for this compound, "CN(C)CCC(CCN(C)C)=NO" : GI50 is > 100 µM (inactive)

Summary for this compound, COc1ccc(C2c3cc4c(cc3C(O)C3CCC(=O)N23)OCO4)cc1 (stereo unspecified) : GI50 is > 100 µM (inactive)

Summary for this compound, CC1C2(C)OC(=N)C(C#N)(C(C)O2)C1(C#N)C#N (stereo unspecified) : GI50 is 13.1 µM (inactive)

Summary for this compound, "CCOC(=O)c1nnsc1N/N=C\c1ccc([N+](=O)[O-])cc1" : GI50 is > 100 µM (inactive)

Summary for this compound, O=C1c2c(Br)sc(Br)c2C(NC(=O)C(F)(F)F)C1O (stereo unspecified) : GI50 is 19.5 µM (inactive)
